Reported melting point values are given for each entry in this list.

Below, each entry is followed by its recorded melting point result.
| compound | melting point |
| --- | --- |
| Cc1ccc(Sc2cc(C#N)ccc2C#N)cc1 | 155 °C |
| CC(C)OC(=O)c1cc2c(cn1)[nH]c1cccc(Oc3ccc(Cl)cc3)c12 | 273 to 274 °C |
| CCOC(=O)C1=C(C)NC(=S)N(C(=O)OCC)C1c1cccc(Cl)c1 (stereo unspecified) | 95 to 97 °C |
| CCn1c(=O)c(-c2ccc3ccccc3c2)cc2cnc(Nc3ccccc3)nc21 | 254 to 256 °C |

Please report melting point for the following compound: O=C(Cc1ccc(O)cc1)c1ccc(O)cc1O 186 °C

Identify melting point associated with the compound CCOC(=O)c1cncc(C(=O)NC(C)c2ccccc2)c1 (stereo unspecified) 159 to 161 °C

Tell me measured melting point for O=C1Cc2cc3c(cc2C(c2ccc([N+](=O)[O-])cc2Cl)=NN1)OCO3 please. 202 to 204 °C

* * *

observed property: melting point

Sample answers from the record:
| molecule | melting point |
| --- | --- |
| CN(C)c1cccc2c(S(=O)(=O)Nc3ncc(Br)nc3Br)cccc12 | 178 °C |
| O=c1cc(-c2cccc(OP(=O)(O)O)c2)[nH]c2ccc(N3CCCC3)cc12 | > 300 °C |
| CCCCNc1c(C(=O)O)cnc2[nH]ncc12 | 225 °C |

Let me know recorded melting point for Cc1ccc(Cc2nc3c(cnn3C(CCCc3ccccc3)C(C)O)c(=O)[nH]2)cc1 (stereo not drawn) , thanks. 133 °C

Indicate its recorded melting point; the molecule in question is O=C(Nc1ccc(CN2CCOCC2)c2ccccc12)c1cc(F)cc(N2CCOCC2)c1 192 to 193 °C

Specify measured melting point for CN(c1ccc(Cl)cc1)c1ncnc2cc(Cl)ccc12 . 129 to 131 °C

# return recorded melting point for entry O=c1c2c(F)cccc2nc(C(S)c2ncnc3[nH]cnc23)n1-c1ccccc1Cl (stereo not drawn) 223 to 224 °C

Please give the documented melting point of COC(=O)c1ccc(NC(=O)Nc2ccc(OC)c(C34CC5CC(CC(C5)C3)C4)c2)cc1 223 to 224 °C

Look up and state reported melting point for COc1ccc2[nH]c(S(=O)Cc3cc(N(C)C)c(Cl)cn3)nc2c1 (stereo not drawn) 155 to 157 °C

Supply measured melting point of CCCc1c(O)c(C(C)=O)cc2c1CCCC2 in your reply. 52 to 53 °C

Dear colleague, please send me the reported melting point for Nc1nc2ccccc2c2c1ncn2CCCCNC(=O)CCc1ccccc1 when you can. 148 to 150 °C

Tell me measured melting point for CN(C)c1cccc(CC(=O)Cc2cccc(Cl)c2)c1 please. 58 to 60 °C

Indicate the recorded melting point value for this molecule: CCOC(=O)c1nn(-c2ccc([N+](=O)[O-])cc2)c2c1CCCC2 173 °C

Indicate its recorded melting point; the molecule in question is N#CC1CN(C(=O)[C@H](NC(=O)c2c[nH]c3ncc(-c4ccc(C(F)(F)F)cc4)nc23)C2CC2)C1 207 to 209 °C

For the molecule O=c1ccn(-c2cccc(C(F)(F)F)c2)nc1-c1ccnn1Cc1ccccc1 , give its measured melting point value. 156 to 157 °C

Give the reported melting point for this molecule. CCNC(=O)N1N=C(c2ccc(N)cc2)c2cc(Cl)ccc2CC1C (stereo not drawn) 165 to 167 °C

Determine its reported melting point: CCCCn1cc(N)c(=O)c2cnc(-c3ccncc3)nc21 195 to 196 °C

Answer with the recorded melting point of O=c1cc(-c2cccc(Br)c2)sc(N2CCOCC2)c1 only. 181 to 182 °C

Fill in melting point for record COC(=O)c1nc(-c2ccc(Cl)c(OC)c2F)nc(N)c1F 200 to 202 °C

Fill in reported melting point for this entry: O=C(N=c1sc2cc(C(F)(F)F)ccc2n1CCO)C(F)(F)F 198 °C

Provide one value: measured melting point of CO/N=C(\C)[C@H]1CC[C@H]2[C@@H]3CCC4=CC(=O)CC[C@]4(C)[C@H]3CC[C@]12C 180 to 182 °C

Please report melting point for the following molecule: O=C(Nc1ccc(Cl)c(C(F)(F)F)c1)Oc1ccc2c(c1)CCCN2Cc1ccccc1 151 °C

This collection of values is drawn from a melting point compilation (Tetko et al.; mined from patent text by program, amines drawn as free bases though some values may be those of a salt).
